All values here come from the supplement of paper PMC10567573.

B1: ANKRD40 (parent)
chain: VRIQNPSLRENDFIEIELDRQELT

Variants of: B1
Assay overview: protein stability index of a GFP-peptide fusion (GPS, HEK-293T) (PSI 1-6); higher = more stable;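 further: lentivirally expressed fusions sorted by FACS into six bins by GFP to DsRed ratio, PSI derived from sequencing read proportions per bin multiplied by bin number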
Details: c terminus: a fixed tail appended
Form field: protein stability index (one value per entry).
// return just the number, without any unit appended

Illustrative cases are given below, each with its answer.
I3S; 3.84
N11Q; 2.54
L8S; 3.24
E15H; 2.94
R20S; 2.08

[in] Looking for the measured protein stability index of Q4P , can you help?
[out] 2.63

[in] Also need I14K , thanks.
[out] 4.47

[in] Also need R2D , thanks.
[out] 4.69

[in] Also need S7G , thanks.
[out] 2.26

[in] Also need Q21R , thanks.
[out] 2.24

[in] Also need Q4L , thanks.
[out] 1.89
